# MEASUREMENT_TARGET: T1, CRBN, Q96SW2;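 note: pooled lentiviral library of zinc finger degron-EGFP fusions in mCherry-positive Jurkat cells, FACS-sorted after compound exposure, with degron abundance counted by next-generation sequencing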
# T1 chain: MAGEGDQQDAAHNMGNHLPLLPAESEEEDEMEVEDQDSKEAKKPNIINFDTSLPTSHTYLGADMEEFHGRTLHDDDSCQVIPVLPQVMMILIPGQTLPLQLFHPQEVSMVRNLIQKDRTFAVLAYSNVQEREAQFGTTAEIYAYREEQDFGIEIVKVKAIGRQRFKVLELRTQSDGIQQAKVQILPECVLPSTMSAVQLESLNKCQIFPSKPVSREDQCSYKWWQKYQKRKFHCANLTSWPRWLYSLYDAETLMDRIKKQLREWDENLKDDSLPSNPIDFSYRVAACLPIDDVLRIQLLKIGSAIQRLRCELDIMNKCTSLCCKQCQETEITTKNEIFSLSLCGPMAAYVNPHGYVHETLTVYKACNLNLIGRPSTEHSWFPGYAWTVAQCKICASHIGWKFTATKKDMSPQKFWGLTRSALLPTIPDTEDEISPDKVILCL
# TEST_METHOD_NOTES: log2 fold change of degron read counts, EGFP-low vs EGFP+ sorted cells (limma voom), compound-induced degradation; higher = more compound-induced degradation of the degron-EGFP fusion; degrons are variants of IKZF1/3 zinc finger 2; compound dose not given here
# ASSAY_CONDITIONS: Jurkat; 18 h; compound: compound 19 (5-tert-butyl-thalidomide)
The full ranking holds about 8,300 sequences; the median of “log2 fold change of degron read counts, EGFP-low vs EGFP+ sorted cells (limma voom), compound-induced degradation” is about -1.1, and the highest 2% start at about 3.2. The list comes from a sample in which the highest values are over-represented; it also holds close analogues and randomly drawn sequences.
Each entry below carries its reported log2 fold change of degron read counts.
Number only, please.

// solved cases for log2 fold change of degron read counts follow
1. FECDQCGAAFTQKGNLLRHIKL [46F_47E_49D_50Q_52G_53A_54A_55F_67L_, Q9UKT9] : -1.3
2. FQCEICGATFTQKGNLLRHIKL [46F_47Q_49E_50I_52G_53A_54T_55F_67L_, Q9UKT9] : 0.665
3. FRCEICGHVFTQKGNLLRHIKL [46F_47R_49E_50I_52G_53H_54V_55F_67L_, Q9UKT9] : -2.92

Fill in: log2 fold change of degron read counts of FVCPQCGAMFTQKGNLLRHIKL [46F_47V_49P_50Q_52G_53A_54M_55F_67L_, Q9UKT9] is ___
-2.14

Fill in: log2 fold change of degron read counts of FVCPQCGAIFTQKGNLLRHIKL [46F_47V_49P_50Q_52G_53A_54I_55F_67L_, Q9UKT9] is ___
-2.01

Fill in: log2 fold change of degron read counts of FRCEICGATFTQKGNLLRHIKL [46F_47R_49E_50I_52G_53A_54T_55F_67L_, Q9UKT9] is ___
-0.98

Fill in: log2 fold change of degron read counts of LCCEICGFECTQKGNLLRHIKL [46L_47C_49E_50I_52G_53F_54E_55C_67L_, Q9UKT9] is ___
-0.329

Fill in: log2 fold change of degron read counts of FSCEICGRSFTQKGNLLRHIKL [46F_47S_49E_50I_52G_53R_54S_55F_67L_, Q9UKT9] is ___
-1.46

Fill in: log2 fold change of degron read counts of LHCNQCGFWCTQKGNLLRHIKL [46L_47H_49N_50Q_52G_53F_54W_55C_67L_, Q9UKT9] is ___
-0.827
